test system: Influenza A (A/Puerto Rico/8/34) virus; type: binding, influenza A virus H1N1
Parameter Measured: Virus ELISA OD A450
# print the numeric value only

Req: Fill blank: measured Virus ELISA OD A450 of the molecule 3260_D19 (antibody, V domains shown) VH: DMQLVESGGGLVPPGGSLRLSCAASGFSVSDNYINWVRQAPGKGLDWVSVFYSADRTSYADSVKGRFTVSSHDSKNTVYLQMNSLRAEDTAVYYCARVQKSYYGMDVWGQGTTVTVSS VL: GIQMTQSPSSLSASVGDRVTITCRASQSISRYLNWYLQKPGKAPKLLISGASSLQSGVPSRFSGTGSGTEFTLTISSLQPEDFATYYCQQTFSIPLFGQGTKVEIK is ____.
Resp: 2.46
